Data origin, for the record: ChEMBL document CHEMBL4513216

test system: Plasmodium berghei; assay: Screen against P. berghei liver stage (PbLuc), transformed with Luciferase, at 10uM; format: functional, HepG2; conditions: tested at 10 uM
About 8,600 (12%) of roughly 69,000 compounds showed an effect of 50% or more. The full list was thinned out, with strong results kept by preference.
I'd be grateful if you could share measured INHIBITION for these entries.
Your answer should be a plain number; it is taken to be in %.

Requested field: INHIBITION. Item: Cc1cc(CN(C)CCC(O)c2ccccc2)nn1C (centres undefined)
-3.3

Also Cc1cc(=O)n2ncnc2n1CC(O)c1ccc(F)cc1F (centres undefined) ?
57.6

Also "COc1ccc(NC(=O)CSC(F)(F)F)cn1" ?
66.7

Also "COCCN(CCOC)c1nc2c(s1)c(C)nn2C" ?
65.6

Also "CCc1nnc(CN2CCC3(CC2)Nc2ccccc2NC3=O)o1" ?
18.2

Also "O=C1Nc2ccccc2NC12CCN(Cc1nnc(C3CC3)o1)CC2" ?
56.1

Also Cc1cc(=O)n2ncnc2n1CC(O)c1ccccc1Cl (centres undefined) ?
2.37

Also "CCc1ccc(C(=O)N2CCC(c3nncn3CC)CC2)o1" ?
28.1

Also "C[C@@H]1CN(C(=O)CCN2CCCC2)CC[C@@]1(O)C1CCC1" ?
27.9

Also Cn1ncc2cnn(CC(O)COCc3ccccc3Cl)c2c1=O (centres undefined) ?
-30.1

Also COCCN1CCCC(CN(C)c2nc3c(s2)c(C)nn3C)C1 (centres undefined) ?
3.96

Also "COCc1ncc(-c2nccn2CCn2cnnc2)cn1" ?
-0.614

Also CCN(C)CC1CCN(c2ncc(Br)cn2)C1 (centres undefined) ?
26

Also Cc1nc(C2CCCN(c3ncc(Br)cn3)C2)no1 (centres undefined) ?
19.8

Also CCCc1nnc(N(C)CC2CCN(CC(C)C)C2)o1 (centres undefined) ?
-62.4

Also CN(C)c1nc2c(c(N3CCC4(CCCNC4=O)C3)n1)CCCC2 (centres undefined) ?
42.2

Also "CCCN1CCCn2c(nc(CNC(=O)N3CCCC3)cc2=O)C1" ?
49.1

Also "COc1ccc2cc(NC(=O)CCNc3nc(C)cc(C)n3)cnc2c1" ?
73

Also "O=C(CCNc1ncccn1)Nc1ccc(Cn2cncn2)cc1" ?
-4.56

Also "Cc1cc(C)nc(NCCC(=O)Nc2ccc(Cn3cncn3)cc2)n1" ?
55.1

Also "CC(=O)N1CCCN(C(=O)NCCOc2ccc3c(c2)OCO3)CC1" ?
-31.8

Also "CC(C)c1nnc(CN2CCC3(CC2)Nc2ccccc2NC3=O)o1" ?
-20.7

Also "COCC(=O)N1C[C@@H](O)[C@H](N2CCN(c3ccccc3)CC2)C1" ?
12.39

Also "CN(C)c1nc2c(c(N3CCC4(CC3)CNC(=O)C4)n1)CCCC2" ?
84.5

Also Cc1cc(=O)n2ncnc2n1CC(O)c1cc(F)ccc1F (centres undefined) ?
-4.74

Also COCCN1CCC(CN(C)c2nc3c(s2)c(C)nn3C)C1 (centres undefined) ?
48.5

Also CNC(=O)C1(C)CN(Cc2cn(C)c3ccc(F)cc23)CCO1 (centres undefined) ?
3.48

Also "CCCn1ccnc1-c1nccn1CCN(C)C" ?
34.1

Also "CCCn1ccnc1-c1nccn1CCn1cnnc1" ?
50.5

Also "COCCN(Cc1cnn(C)c1)c1nc2c(s1)c(C)nn2C" ?
45.2

Also "Cc1nn(C)c2nc(N(C)CCN(C)C3CCCC3)sc12" ?
39.9

Also "C[C@@H]1CN(C(=O)CCN2CCCC2)CC[C@@]1(O)C1CCOCC1" ?
25.4

Also Cc1c(C(=O)N2CCCC(n3cncn3)C2)cnn1C (centres undefined) ?
1.75

Also "Cc1cccc(=O)n1CCC(=O)N1CC[C@](C)(O)[C@H](C)C1" ?
51.3

Also "Cc1nn(C)c2nc(N(C)CCN(C)C)sc12" ?
39.1

Also "O=C(CCCNc1ncccn1)Nc1ccc(Cn2cncn2)cc1" ?
45.9

Also "Cc1cccc(=O)n1CCC(=O)N1CC[C@@](O)(C2CCC2)[C@H](C)C1" ?
47.6

Also "C[C@@H]1CN(C(=O)CCCN2CCOCC2)C[C@@]1(O)C1CC1" ?
37.7

Also "C[C@@H]1CN(C(=O)CCN2CCOCC2)CC[C@]1(C)O" ?
55

Also Cc1nn(C)c2nc(N(C)CC3CCN(CC(C)C)C3)sc12 (centres undefined) ?
74.3

Also "O=C(O)CNC(=O)Cc1csc(-c2cccc(Cl)c2)n1" ?
44.9

Also "COCCN1CCC(CN(C)c2nc3c(s2)c(C)nn3C)CC1" ?
64.4

Also "Cc1nc(CN2CCC(c3ccnn3CCO)CC2)oc1C" ?
-12.2

Also CN(Cc1ccccc1)CC(O)Cn1cnc2ccccc2c1=O (centres undefined) ?
2.26

Also Cc1cc(=O)n2ncnc2n1CC(O)c1ccccc1F (centres undefined) ?
33

Also "CC[C@H]1CN(C(=O)CCn2c(C)cccc2=O)CC[C@@]1(C)O" ?
-22.7

Also Cc1cc(=O)n2ncnc2n1CC(O)c1ccccc1 (centres undefined) ?
62.9

Also "COc1ccc2cc(NC(=O)CCNc3ncccn3)cnc2c1" ?
41.5

Also Cc1c(NC(=O)C(C)N(C)C)c(=O)n(-c2ccccc2)n1C (centres undefined) ?
-45.8
